Reference for the values: paper PMC3598705

Test system: E. coli ATCC 8739
Experiment: Antimicrobial activity, tube dilution method
Format: cell-based, Escherichia coli
Conditions: 24 h at 37 °C, four repeated experiments
Exam item: assign YES to entries whose MIC is below 50 mM and NO to entries at or above 50 mM. Note that a value of exactly 50 mM receives NO.

C[N+](C)(C)CCO.N[C@@H](Cc1cnc[nH]1)C(=O)[O-] [[Ch][His]] : YES
CC(=O)[O-].C[N+](C)(C)CCO [[Ch][AcO], Cholinium acetate, reference compound] : NO

Input line: Quick check: does C[N+](C)(C)CCO.NC(=O)C[C@H](N)C(=O)[O-] [[Ch][Asn]] have MIC under 50 mM?
Output line: NO

Input line: Quick check: does CCC(C)C(N)C(=O)[O-].C[N+](C)(C)CCO (stereo not drawn) [[Ch][Ile]] have MIC under 50 mM?
Output line: YES

Input line: Quick check: does C[N+](C)(C)CCO.N[C@@H](Cc1c[nH]c2ccccc12)C(=O)[O-] [[Ch][Trp]] have MIC under 50 mM?
Output line: YES
